Cited source for all entries: paper PMC7235764

Test system: B. mandrillaris
assay procedure: Amoebistatic assay (growth inhibition on HeLa feeder monolayers) against B. mandrillaris
Type: cell-based, Balamuthia mandrillaris
condition description: Balamuthia mandrillaris, HeLa, 24 h, untreated amoebae considered as 0%
attribute measured: inhibition at 50 µM

In [3]: df
Out[3]:
                                   compound   attribute_measured  measured_result
0  Clc1cccc(Cc2nnn[nH]2)c1 [A5, 5-(3-Chlorobenzyl)-1H-tetrazole]  inhibition at 50 µM              51%
1  c1ccc(-c2nnn[nH]2)cc1 [A6, 5-Phenyl-1H-tetrazole]  inhibition at 50 µM              70%
2  COc1cc(-c2nc3ccccc3[nH]2)cc(Br)c1OC [A1]  inhibition at 50 µM              53%

Fill in the blank: the reported inhibition at 50 µM of CC1(C)C/C(=N\NC(N)=S)c2cnn(-c3ccccc3)c2C1 [A4] is ____. 65%

Fill in the blank: the reported inhibition at 50 µM of Cc1ccc(-c2nc3ccccc3[nH]2)o1 [A2] is ____. 70%

Fill in the blank: the reported inhibition at 50 µM of CC1(C)C/C(=N\NC(=S)Nc2ccccc2Cl)c2cnn(-c3ccccc3)c2C1 [A3] is ____. 56%

----------
Test system: HaCaT cells
assay procedure: Cytotoxicity assay (LDH release) against human cells
Type: cell-based
condition description: 50 μM, 24 h, 37 °C
Method: Figure 3 Cytotoxic effects of azoles against host cells. Briefly, 50 μM azoles were incubated with HaCaT cells monolayers for 24 h at 37 °C in a 5% CO2 incubator as described in Materials and Methods. […] Cytotoxic effects of the drugs were determined as previously described. […] The level of lactate dehydrogenase (LDH) enzyme in the RPMI-media which indicates cytotoxic effects of drugs was determined by means of a cytotoxicity detection kit (Roche Applied Science). […]
# cytotoxicity per entry
Response body: numeric value in %, unit text excluded.

Fill in the blank: the reported cytotoxicity of CC1(C)C/C(=N\NC(N)=S)c2cnn(-c3ccccc3)c2C1 [A4] is ____. 5

----------
Test system: HaCaT cells
assay procedure: Cytotoxicity assay (LDH release) against human cells
Format: cell-based
condition description: 50 μM, 24 h, 37 °C
# cytotoxicity per entry
Response body: numeric value in %, unit text excluded.

Sample answers from the record:
In [3]: df
Out[3]:
                           smiles_code  measured_result
0  COc1cc(-c2nc3ccccc3[nH]2)cc(Br)c1OC               41
1              Clc1cccc(Cc2nnn[nH]2)c1               11

Please examine the following record next.
Fill in the blank: the reported cytotoxicity of CC1(C)C/C(=N\NC(=S)Nc2ccccc2Cl)c2cnn(-c3ccccc3)c2C1 is ____. 19
